FYI, the data here is from patent US10487348B2.

- Substrate: NC(=O)C1=CN([C@@H]2O[C@H](COP(=O)(O)OP(=O)(O)OC[C@H]3O[C@@H](n4cnc5c(N)ncnc54)[C@H](O)[C@@H]3O)[C@@H](O)[C@H]2O)C=CC1
- experiment summary: purified protein, by the assay type
- assay setup: other: Table 15, substrate NADH; tag N; apparent values; pH 8.0
Exercise: state measured kcat/Km for each of the proteins provided.
Answers are plain numbers, in M⁻¹ s⁻¹.

In the examples that follow, each entry is paired with its recorded kcat/Km.
Comamonas testosteroni 3α-HSDH mutant [T188A], N-terminal hexahistidine tag (Comamonas testosteroni; T188A) (protein) MSIIVISGCATGIGAATRKVLEAAGHQIVGIDIRDAEVIADLSTAEGRKQAIADVLAKCSKGMDGLVLCAGLGPQTKVLGNVVSVNYFGATELMDAFLPALKKGHQPAAVVISSVASAHLAFDKNPLALALEAGEEAKARAIVEHAGEQGGNLAYAGSKNALTVAVRKRAAAWGEAGVRLNTIAPGAAETPLLQAGLQDPRYGESIAKFVPPMGRRAEPSEMASVIAFLMSPAASYVHGAQIVIDGGIDAVMRPTQF
1.17e+06
Comamonas testosteroni 3α-HSDH mutant [L68A], N-terminal hexahistidine tag (Comamonas testosteroni; L68A) (protein) MSIIVISGCATGIGAATRKVLEAAGHQIVGIDIRDAEVIADLSTAEGRKQAIADVLAKCSKGMDGLVACAGLGPQTKVLGNVVSVNYFGATELMDAFLPALKKGHQPAAVVISSVASAHLAFDKNPLALALEAGEEAKARAIVEHAGEQGGNLAYAGSKNALTVAVRKRAAAWGEAGVRLNTIAPGATETPLLQAGLQDPRYGESIAKFVPPMGRRAEPSEMASVIAFLMSPAASYVHGAQIVIDGGIDAVMRPTQF
6.46e+06

Next, consider the following protein.
Ask: Consider the protein Comamonas testosteroni 3α-HSDH dual mutant [L68A/T188A], N-terminal hexahistidine tag (Comamonas testosteroni; L68A/T188A) (protein) MSIIVISGCATGIGAATRKVLEAAGHQIVGIDIRDAEVIADLSTAEGRKQAIADVLAKCSKGMDGLVACAGLGPQTKVLGNVVSVNYFGATELMDAFLPALKKGHQPAAVVISSVASAHLAFDKNPLALALEAGEEAKARAIVEHAGEQGGNLAYAGSKNALTVAVRKRAAAWGEAGVRLNTIAPGAAETPLLQAGLQDPRYGESIAKFVPPMGRRAEPSEMASVIAFLMSPAASYVHGAQIVIDGGIDAVMRPTQF and give its measured kcat/Km.
Reply: 1.65e+06
